# reported TL1A Binding Level (Early); entries follow
# system-name: T1, human TL1A extracellular domain with N-terminal HIS and FLAG tag (human, UniProt O95150 72-251)
# T1 construct: the whole entry is named; also called TNFSF15
# T1 sequence: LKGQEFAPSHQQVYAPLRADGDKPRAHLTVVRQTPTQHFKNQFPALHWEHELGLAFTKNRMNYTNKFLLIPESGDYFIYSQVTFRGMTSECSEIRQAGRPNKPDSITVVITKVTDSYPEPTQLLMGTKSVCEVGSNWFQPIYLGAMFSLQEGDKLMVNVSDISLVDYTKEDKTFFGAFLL
# assay-name: SPR Run 7, antibody on Protein A, TL1A 5 ug/mL, timepoint 44
Enter your answer as a number in RU; do not include the unit.

>>> meas_value("320-550 (antibody, human IgG1, name in Kabat numbering, V domains shown, full-length human IgG1, lambda) VH: QVQLVQSGAEVKKPGASVKVSCKASGYTFTSYDINWVRQAPGQGLEWMGWLNPNSGNQGYAQKFQGRVTMTADRSTSTAYMELSSLRSEDTAVYYCAREVPETAAFEYWGQGTLVTVSS VL: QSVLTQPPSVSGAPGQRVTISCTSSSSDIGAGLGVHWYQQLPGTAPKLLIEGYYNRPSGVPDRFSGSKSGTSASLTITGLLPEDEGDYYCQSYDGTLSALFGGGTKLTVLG")
112

Shift focus to the following entry.
Recorded TL1A Binding Level (Early) of 320-507 (antibody, human IgG1, name in Kabat numbering, V domains shown, full-length human IgG1, lambda) VH: QVQLVQSGAEVKKPGASVKVSCKASGYTFTSYDINWVRQAPGQGLEWMGWLNQNSGNTGYAQKFQGRVTMTADRSTSTAYMELSSLRSEDTAVYYCAREVPETAAFEYWGQGTLVTVSS VL: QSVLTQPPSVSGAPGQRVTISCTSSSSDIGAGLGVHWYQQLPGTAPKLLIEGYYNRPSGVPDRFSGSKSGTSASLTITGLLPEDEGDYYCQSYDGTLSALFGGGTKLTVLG , please.
27
